Value source: patent US20260166039A1

# Target system: Wee1 kinase domain (Homo sapiens)
# Construct: Wee1 kinase domain was purchased from Carna (catalog #05-177); purchased Carna 05-177
# Sequence (P30291 299-569 limits assumed): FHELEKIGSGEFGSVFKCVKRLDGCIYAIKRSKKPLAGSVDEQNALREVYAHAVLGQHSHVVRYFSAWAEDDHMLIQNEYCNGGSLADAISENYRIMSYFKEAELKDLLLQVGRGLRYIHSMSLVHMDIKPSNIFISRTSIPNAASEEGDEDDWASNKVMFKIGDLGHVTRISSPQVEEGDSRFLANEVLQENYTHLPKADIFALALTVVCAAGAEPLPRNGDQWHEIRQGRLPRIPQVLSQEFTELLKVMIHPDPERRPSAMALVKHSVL
# Method notes: Wee1 Kinase Biochemical Assay (ADP-Glo)
# Experimental setup: Wee1 kinase domain, 15 uM ATP, ADP-Glo
Reported IC50 values for a set of molecules

Exercise: For the molecule shown here, CNCc1cccc(N2c3nc(Nc4ccc(C5CCN(C)CC5)c(C)c4)ncc3[C@@]3(C)COC(C)(C)C[C@@H]23)n1 (single isomer, unassigned) , give the reported IC50.
Key: < 10 nM

Exercise: For the molecule shown here, CN1Cc2cc(Nc3ncc4c(n3)N(c3cccc(N=S(C)(C)=O)n3)[C@@H]3CC(C)(C)OC[C@]43C)ccc2C(C)(C)C1 (single isomer, unassigned) , give the reported IC50.
Key: < 10 nM

Further cases:
Exercise: For the molecule shown here, CNCc1cccc(N2c3nc(Nc4ccc([C@@H]5CNC(=O)C5)cc4)ncc3[C@@]3(C)COC(C)(C)C[C@@H]23)n1 (single isomer, unassigned) , give the reported IC50.
Key: < 10 nM

Exercise: For the molecule shown here, CNCc1cccc(N2c3nc(Nc4ccc(C(=O)N5CCOCC5)cc4)ncc3[C@]3(C)COC(C)(C)C[C@H]23)n1 (single isomer, unassigned) , give the reported IC50.
Key: 100 to 1000 nM

Exercise: For the molecule shown here, C[C@H]1COC(=O)N1c1cccc(N2c3nc(Nc4ccc(N5CCNCC5)cc4)ncc3[C@]3(C)COC(C)(C)C[C@H]23)n1 (single isomer, unassigned) , give the reported IC50.
Key: 10 to 100 nM
